target: pERK1/2 (Thr202/Tyr204), NCI-1H358 (KRAS G12C) (Homo sapiens, UniProt P01116, G12C); construct: pERK1/2 HTRF read-out; experiment: Assay of intracellular pERK1/2 (Thr202/Tyr204) phosphorylation in NCI-H358 cells (KRAS G12C); type: cell-based; conditions: pERK1/2, 2 days, read-out: NCI-H358 (KRAS G12C) IC50
Sequence (P01116 1-188 isoform P01116-2 G12C): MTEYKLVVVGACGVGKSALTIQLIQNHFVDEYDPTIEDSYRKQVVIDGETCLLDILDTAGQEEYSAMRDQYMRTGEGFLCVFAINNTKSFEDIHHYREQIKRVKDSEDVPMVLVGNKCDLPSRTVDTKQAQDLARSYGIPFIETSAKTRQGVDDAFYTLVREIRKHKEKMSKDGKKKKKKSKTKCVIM
measured attribute: IC50 (nM)

| molecule | IC50 (nM) |
| --- | --- |
| CC(c1cccnc1N)N1c2nc(OC[C@@]34CCCN3C[C@H](F)C4)nc3c(F)c(-c4c(Cl)c(C(F)(F)F)cc5[nH]ncc45)nc(c23)OC[C@@H]1C (single isomer, unassigned) | 2 |

a. CC(c1cccnc1N)N1c2nc(OC[C@@]34CCCN3C[C@H](F)C4)nc3c(F)c(-c4c5ccccc5cc5[nH]ncc45)nc(c23)OC[C@@H]1C (some centres unmarked)
b. C[C@@H](c1cccnc1N)N1CCOc2nc(-c3c(C(F)(F)F)ccc4[nH]ncc34)c(F)c3nc(OC[C@@]45CCCN4C[C@H](F)C5)nc1c23 (single isomer, unassigned)
Input: // pick min by IC50: a , b // output: label of the selected item
Output: a
